experiment: Partition coefficient (logP) (octanol/saline); format: physicochemical
reported property: logP

Examples with answers:
* CCCCCCC(C=O)(CCCC)c1oc(=O)c(CCCC)c(O)c1CCCC (stereo not drawn) | 1.52
* CCCCc1c(C2OC2C)oc(=O)c(CCCC)c1OC(C)=O (stereo not drawn) | 2.17
* Cc1oc(=O)c(C)c(O)c1C | 0.36

(A) CCCCc1c(C)oc(O)c(CCCC)c1=O
(B) CCCCc1c(CC(C)=O)oc(=O)c(CCCC)c1OC(C)=O
q: Identify the entry with the smaller logP: A or B . Could you answer with the label of the item you picked?
a: A

(P) Cc1cc(O)cc(=O)o1 [4-HYDROXY-6-METHYLPYRAN-2-ONE]
(Q) CCCCc1c(C(CCCC)C(=O)c2ccccc2)oc(=O)c(CCCC)c1O (stereo not drawn)
(R) CCCCc1c(CC(C)O)oc(=O)c(CCCC)c1OC(C)=O (stereo not drawn)
(S) Cc1cc(O)c(C)c(=O)o1
q: Put the items in order so that reported logP rises from first to last. # format: label list in the order the request specifies
a: P, S, Q, R

(1) O=C(Cc1cc(=O)cc(O)o1)c1ccccc1
(2) Cc1c(CC(=O)c2ccccc2)oc(=O)c(C)c1O
q: Identify the entry with the smaller logP: 1 or 2 . Could you answer with the label of the item you picked?
a: 1
(1: 0.43, 2: 0.73)

(a) Cc1c(O)cc(CC(=O)c2ccccc2)oc1=O
(b) CCCCc1c(CC(C)=O)oc(=O)c(CCCC)c1O
q: Could you please tell me which of these two has the higher logP: a or b ? Could you answer with the label of the item you picked?
a: b
(b: 1.74, a: 0.78)
